target_under_test: T1, native human IP-10 (hIP-10) (human, UniProt P02778 22-98)
T1 sequence (looked up): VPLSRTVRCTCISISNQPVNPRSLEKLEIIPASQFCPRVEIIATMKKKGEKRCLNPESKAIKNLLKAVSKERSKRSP
assay_details: cell-based or functional assay
observation_type: Chemotaxis IC50 (nM); native hIP-10 at 0.6 nM
Write the answer as a number in nM, unit excluded.

Return the recorded Chemotaxis IC50 (nM); native hIP-10 at 0.6 nM value; entry: CF1N1R3P4_C7, IgG1 format (antibody, V domains shown) VH: QVQLVESGGGVVQPGRSLRLSCAASGFTFSNSGIHWVRQAPGKGLEWVAVISYDGSNKFYADSVKGRFTISRDNSKNTLYLQMNSLRAEDTAVYYCAKLRDNAEYTDYWGQGTLVTVSS VL: NFMLTQPHSVSESPGKTVTISCTGSGGSIDRNYVQWYQQRPGSSPTTVIYEDNQRPSGVPDRFSGSIDSSSNSASLTISGLKTEDEADYYCQSYDPLPVWVFGGGTKLTVL 0.64

Return the recorded Chemotaxis IC50 (nM); native hIP-10 at 0.6 nM value; entry: CF1A11R3P3_F3, IgG1 format (antibody, V domains shown) VH: QVQLVESGGGVVQPGRSLRLSCAASGFTFSNSGIHWVRQAPGKGLEWVAVISYDGSNKFYADSVKGRFTISRDNSKNTLYLQMNSLRAEDTAVYYCAKLRDNGEYLDYWGQGTLVTVSS VL: NFMLTQPHSVSESPGKTVTISCTGSGGSIDRNYVQWYQQRPGSAPITVIYEDNQRPSGVPDRFSGSIDSSSNSASLTISGLRTDDEADYYCQSYDSINLWVFGGGTKVTVL 1.7

Return the recorded Chemotaxis IC50 (nM); native hIP-10 at 0.6 nM value; entry: CF1H1R3P3_G11, IgG1 format (antibody, V domains shown) VH: QVQLVESGGGVVQPGRSLRLSCAASGFTFSNSGIHWVRQAPGKGLEWVAVISYDGSNKFYADSVKGRFTISRDNSKNTLYLQMNSLRAEDTAVYYCAKLRDNGEYLDYWGQGTLVTVSS VL: NFMLTQPHSVSESPGKTVTISCTGSGGSIDRNYVQWYQQRPGSSPTTVIYEDNQRPSGVPDRFSGSIDSSSNSASLTISGLKTEDEADYYCQSYDPLPVWVFGGGTKLTVL 1.9

Return the recorded Chemotaxis IC50 (nM); native hIP-10 at 0.6 nM value; entry: CC21R3P1_F1, IgG1 format (antibody, V domains shown) VH: QVQLVESGGGVVQPGRSHTLSCAASGFAFKNSGIHWVRQAPGKGLEWVAVISYDGSNKFYADSVKGRFTISRDNSQNTVYLQMTDLRPDDTAVYYCARDGSESEYLDYWGKGTLVTVSS VL: NFMLTQPHSVSESPGKTVTISCTGSGGSIDRNYVQWYQQRPGSAPITVIYEDNQRPSGVPDRFSGSIDSSSNSASLTISGLRTDDEADYYCQSYDSINLWVFGGGTKVTVL 11

Return the recorded Chemotaxis IC50 (nM); native hIP-10 at 0.6 nM value; entry: CB21R3P6_G7, IgG1 format (antibody, V domains shown) VH: QVQLVQSGAEVKKPGSSVTVSCKASGGTFSSFSITWLRQAPGQGLEWMGEITPMFGIANYAQKFQGRVTISADESTSTAYMELSGLTSEDTAMYYCARDGRFDVSDLLTDKPKVTINYNGMDVWGQGTLVTVSS VL: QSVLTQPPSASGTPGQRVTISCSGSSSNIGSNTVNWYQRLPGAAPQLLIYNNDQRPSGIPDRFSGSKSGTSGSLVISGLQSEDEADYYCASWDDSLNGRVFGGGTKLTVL 7.8

This collection of values is drawn from patent US20100330094A1.
